Source listed as the NIST ThermoML archive (doi:10.1016/j.jct.2015.04.027).

Conditions: 303.15 K; 100 kPa; Liquid; Vibrating tube method

| molecule | mass density, kg/m3 |
| --- | --- |
| CCO | 780.83 |
| CO | 781.94 |
| CCCCO | 802.08 |
| CCCO | 795.65 |
| CN(C)C(=[NH2+])N(C)C.c1c[n-]cn1 [1,1,3,3-tetramethylguanidinium imidazol-1-ide] | 988.35 |

###

Settings: 293.15 K; 100 kPa; Liquid; Vibrating tube method
mass density values, listed per item

| compound | mass density [kg/m3] |
| --- | --- |
| CO | 791.35 |
| CN(C)C(=[NH2+])N(C)C.c1c[n-]cn1 [1,1,3,3-tetramethylguanidinium imidazol-1-ide] | 997.25 |
| CCCO | 803.75 |
| CCO | 789.51 |
| CCCCO | 809.72 |
